Assay: Cytotoxicity against human DU145 cells assessed as cell growth inhibition after 72 hrs by Alamar blue assay
Type: functional, cell-based
Details: DU-145, 72 h
ENDPOINT_LABEL: IC50 (µM)
Answer format: numeric, µM implied, no suffix.

Examples with answers:
>  <COMPOUND>
Cc1cc(O)c2c(c1)C(=O)c1cc(O)cc(O)c1C2=O

>  <VALUE_UNITS>
µM

>  <IC50>
2.02

$$$$
>  <COMPOUND>
O=C1C2=C(C(=O)c3c(O)ccc(O)c31)[C@@H](O)[C@@H](O)[C@@H](O)C2

>  <VALUE_UNITS>
µM

>  <IC50>
8.21

$$$$
>  <COMPOUND>
COc1c(O)c(O)c2c(c1O)C(=O)c1cc(C)cc(O)c1C2=O

>  <VALUE_UNITS>
µM

>  <IC50>
3.93

$$$$
>  <COMPOUND>
CC(C)(C)OC1CC(O)CC2C(=O)c3c(O)ccc(O)c3C(=O)C12 (stereo not given)

>  <VALUE_UNITS>
µM

>  <IC50>
3.21

$$$$

Now for the compound whose IC50 we want.
Check the records and state IC50 for CC(C)C(C)OC1CC(=O)CC2C(=O)c3c(O)ccc(O)c3C(=O)C12 (stereo not given)
4.06

* * *

Target: Serine/threonine-protein kinase pim-1 (Homo sapiens, UniProt P11309)
Sequence (P11309 whole entry): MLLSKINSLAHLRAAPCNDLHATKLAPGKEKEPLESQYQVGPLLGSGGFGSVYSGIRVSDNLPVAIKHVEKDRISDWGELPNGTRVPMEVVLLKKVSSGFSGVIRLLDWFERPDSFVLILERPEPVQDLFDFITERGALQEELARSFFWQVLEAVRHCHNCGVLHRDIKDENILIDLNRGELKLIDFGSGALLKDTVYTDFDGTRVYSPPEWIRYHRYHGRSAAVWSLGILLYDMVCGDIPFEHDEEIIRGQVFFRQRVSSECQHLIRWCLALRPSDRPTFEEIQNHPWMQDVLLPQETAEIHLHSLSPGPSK
Assay: Inhibition of recombinant human Pim1
ENDPOINT_LABEL: pIC50
The meaning of pIC50 here: minus log10 of the concentration in molar units.

>  <MOLECULE>
COc1c(O)c(O)c2c(c1O)C(=O)c1cc(C)cc(O)c1C2=O

>  <ASSAY_SYSTEM>
Serine/threonine-protein kinase pim-1 (Homo sapiens, UniProt P11309)

>  <MEASURED_RESULT>
4.67

$$$$
>  <MOLECULE>
CC(C)(C)OC1CC(=O)CC2C(=O)c3cccc(O)c3C(=O)C12 (stereo not drawn)

>  <ASSAY_SYSTEM>
Serine/threonine-protein kinase pim-1 (Homo sapiens, UniProt P11309)

>  <MEASURED_RESULT>
4.62

$$$$
>  <MOLECULE>
Cc1cc(O)c2c(c1)C(=O)C=CC2=O

>  <ASSAY_SYSTEM>
Serine/threonine-protein kinase pim-1 (Homo sapiens, UniProt P11309)

>  <MEASURED_RESULT>
4.55

$$$$
>  <MOLECULE>
COc1cccc2c1C(=O)c1c(O)ccc(O)c1C2=O

>  <ASSAY_SYSTEM>
Serine/threonine-protein kinase pim-1 (Homo sapiens, UniProt P11309)

>  <MEASURED_RESULT>
4.94

$$$$

Given O=C1C=C(CBr)C(=O)c2c(O)ccc(O)c21 , respond with its pIC50.
4.57

Provide only the value of recorded pIC50 for CC(C)C(C)OC1CC(=O)CC2C(=O)c3c(O)ccc(O)c3C(=O)C12 (stereo not drawn)
5.44

Provide only the value of recorded pIC50 for O=C1C(CO)=C(CO)C(=O)c2c(O)ccc(O)c21
5.13

Output measured pIC50 for this item: O=Cc1cc(O)c2c(c1O)C(=O)C=CC2=O
4.55

Specify pIC50 for Cc1cc(O)c2c(c1)C(=O)c1cc(O)cc(O)c1C2=O and stop.
5.60

Fill in reported pIC50 for this entry: Oc1ccc(O)c2c(O)c3c(O)ccc(O)c3c(O)c12
4.24

Provide pIC50 value for the following molecule: O=C1C2=C(C(=O)c3c(O)ccc(O)c31)[C@@H](O)[C@@H](O)[C@@H](O)C2
4.72

Annotate the molecule CC(=O)Oc1ccc(O)c2c1C(=O)C=CC2=O with its measured pIC50.
5.52

For CC(C)(C)OC1CC(O)CC2C(=O)c3c(O)ccc(O)c3C(=O)C12 (stereo not drawn) , write its pIC50.
5.46
